Target Of Assay: JAK1 (Homo sapiens (Human))
Method Summary: JAK1 LANCE Ultra kinase assay
Assay type: biochemical
Condition Label: 38 uM ATP
Experimental: Inhibition test on activity of JAK kinase in vitro was carried out by the following methods. JAK1 LANCE® Ultra assay, JAK2 LANCE® Ultra assay and JAK3 LANCE® Ultra assay were used to carry out the test separately, and kits of the above assays were supplied by PerkinElmer. […] According to the formula: percentage of inhibition rate=(maximum value−transform value)/(maximum value−minimum value)×100, inhibition rate of each compound at various concentrations was calculated. […]
Assay Metric: IC50 (nM)

>  <Compound>
C[C@@H]1CN(C(=O)NCC(F)(F)F)C[C@@H]1Nc1c(C#N)cnc2[nH]ccc12 [Compound H40]

>  <Target Of Assay>
JAK1 (Homo sapiens (Human))

>  <Unit Text>
nM

>  <IC50>
2.6

$$$$
>  <Compound>
CC[C@@H]1CN(C(=O)NCC(F)(F)F)C[C@@H]1Nc1c(C(F)(F)F)cnc2[nH]ccc12 (relative stereo) [Compound H92]

>  <Target Of Assay>
JAK1 (Homo sapiens (Human))

>  <Unit Text>
nM

>  <IC50>
8.21

$$$$

[I] N#Cc1cnc2[nH]ccc2c1N[C@H]1C[C@@H](NS(=O)(=O)c2cccc(C(F)(F)F)c2)C1 [Compound H13]
[II] COCC1CCN(S(=O)(=O)C[C@H]2CC[C@H](N(C)c3c(C#N)cnc4[nH]ccc34)CC2)C1 (stereo partly shown) [Compound H68]
Exam item: Identify the entry with the smaller IC50: I or II . Kindly state the label of the option you pick.
Marked response: I

[a] CCCS(=O)(=O)N[C@H]1C[C@@H](Nc2c(C#N)cnc3[nH]ccc23)C1 [Compound H46]
[b] CCOc1noc(NC(=O)N2C[C@H]3C[C@H](N(C)c4c(C#N)cnc5[nH]ccc45)C[C@H]3C2)n1 [Compound H47]
[c] CCc1nsc(NC(=O)N2C[C@H]3C[C@H](N(C)c4c(C#N)cnc5[nH]ccc45)C[C@H]3C2)n1 [Compound H08]
Exam item: Arrange the 3 entries by IC50 so the values rise. The reply should contain the labels ordered as requested.
Marked response: c, a, b

* * *

Test system: Lewis male mice
Method Summary: Collagen-induced rheumatoid arthritis model, clinical score
Format: in vivo
Set-up: key: 0-4 per limb by redness/deformity, max 16 per animal
Condition Label: clinical score 0-16 per animal, Day 18; compounds 10 mg/kg twice/day, methotrexate 2 mg/kg every three days
Assay Metric: Score Day 18
No unit in the answer, only the number.

Please review the entries below; each comes with its answer.
>  <Molecule>
CN(c1c(C#N)cnc2[nH]ccc12)[C@H]1C[C@@H]2CN(C(=O)Nc3ccc(Cl)c(C(F)(F)F)c3)C[C@@H]2C1

>  <Target Of Assay>
Lewis male mice

>  <Score Day 18>
2.13

$$$$
>  <Molecule>
CC(C)c1nsc(NC(=O)N2C[C@H]3C[C@H](N(C)c4c(C#N)cnc5[nH]ccc45)C[C@H]3C2)n1

>  <Target Of Assay>
Lewis male mice

>  <Score Day 18>
3.50

$$$$
>  <Molecule>
N#Cc1cnc2[nH]ccc2c1N1CC2CN(C(=O)NCC(F)(F)F)CC21 (stereo not shown)

>  <Target Of Assay>
Lewis male mice

>  <Score Day 18>
3.0

$$$$

Exam item: I'd like to know its Score Day 18. The molecule in question is CN(Cc1cnc2nc(N)nc(N)c2n1)c1ccc(C(=O)N[C@@H](CCC(=O)O)C(=O)O)cc1 [Methotrexate, reference compound]
Marked response: 4.10

* * *

Target Of Assay: JAK3 (Homo sapiens (Human), UniProt P52333)
Sequence (P52333 whole entry): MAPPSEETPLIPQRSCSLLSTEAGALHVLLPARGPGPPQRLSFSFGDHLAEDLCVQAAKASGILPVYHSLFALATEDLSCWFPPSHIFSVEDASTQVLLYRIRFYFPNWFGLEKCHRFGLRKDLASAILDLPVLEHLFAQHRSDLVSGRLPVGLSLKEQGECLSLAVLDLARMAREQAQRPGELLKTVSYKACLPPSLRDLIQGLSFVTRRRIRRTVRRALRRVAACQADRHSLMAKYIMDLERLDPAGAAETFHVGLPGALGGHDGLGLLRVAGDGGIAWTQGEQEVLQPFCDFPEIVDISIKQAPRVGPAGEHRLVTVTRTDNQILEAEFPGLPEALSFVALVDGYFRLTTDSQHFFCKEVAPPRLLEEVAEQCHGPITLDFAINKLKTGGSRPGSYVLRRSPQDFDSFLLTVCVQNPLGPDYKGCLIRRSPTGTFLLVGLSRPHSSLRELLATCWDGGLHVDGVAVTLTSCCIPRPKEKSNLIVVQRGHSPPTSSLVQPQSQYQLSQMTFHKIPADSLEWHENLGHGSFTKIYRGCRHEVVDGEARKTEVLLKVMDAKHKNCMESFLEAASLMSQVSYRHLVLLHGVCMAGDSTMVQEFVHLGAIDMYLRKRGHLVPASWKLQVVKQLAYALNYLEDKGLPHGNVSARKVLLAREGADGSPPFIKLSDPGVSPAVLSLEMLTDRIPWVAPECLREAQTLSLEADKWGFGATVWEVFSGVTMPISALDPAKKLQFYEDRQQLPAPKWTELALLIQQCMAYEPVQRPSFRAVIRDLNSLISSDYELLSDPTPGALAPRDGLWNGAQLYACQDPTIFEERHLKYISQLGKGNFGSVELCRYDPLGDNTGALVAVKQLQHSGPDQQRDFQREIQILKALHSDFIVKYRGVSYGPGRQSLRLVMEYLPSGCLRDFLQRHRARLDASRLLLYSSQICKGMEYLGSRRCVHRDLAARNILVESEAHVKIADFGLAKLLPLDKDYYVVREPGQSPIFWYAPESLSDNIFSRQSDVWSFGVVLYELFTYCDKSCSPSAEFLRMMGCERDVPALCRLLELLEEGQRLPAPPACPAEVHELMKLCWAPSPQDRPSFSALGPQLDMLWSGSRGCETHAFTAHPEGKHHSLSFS
Method Summary: JAK3 LANCE Ultra kinase assay
Format: biochemical
Condition Label: 4 uM ATP
Assay Metric: IC50 (nM)

Please review the entries below; each comes with its answer.
>  <Molecule>
CNCC1CCN(S(=O)(=O)C[C@H]2CC[C@H](N(C)c3c(C#N)cnc4[nH]ccc34)CC2)C1 (stereo partly shown)

>  <Target Of Assay>
JAK3 (Homo sapiens (Human), UniProt P52333)

>  <Unit Text>
nM

>  <Observed Value>
76

$$$$
>  <Molecule>
N#Cc1cnc2[nH]ccc2c1N[C@H]1C[C@@H](NS(=O)(=O)c2cccc(C(F)(F)F)c2)C1

>  <Target Of Assay>
JAK3 (Homo sapiens (Human), UniProt P52333)

>  <Unit Text>
nM

>  <Observed Value>
58.9

$$$$

[I] CC[C@@H]1CN(C(=O)CCC(F)(F)F)C[C@@H]1Nc1c(C#N)cnc2[nH]ccc12 (relative stereo)
[II] CCOc1nc(NC(=O)N2C[C@H]3C[C@H](N(C)c4c(C#N)cnc5[nH]ccc45)C[C@H]3C2)no1
Exam item: Identify the entry with the smaller IC50: I or II . Kindly state the label of the option you pick.
Marked response: II

* * *

Method Summary: Pharmacokinetic test after intragastric administration
Format: in vivo
Condition Label: Sprague-Dawley, mouse, plasma, po; SD mice, 5 mg/kg intragastric; read-out: half life (T1/2, h) (converted)
Assay Metric: half-life (h)

Please review the entries below; each comes with its answer.
>  <Compound>
C[C@@H]1CCN(C(=O)CC#N)C[C@@H]1N(C)c1c(C#N)cnc2[nH]ccc12

>  <Unit Text>
h

>  <half-life>
8.53

$$$$
>  <Compound>
COc1nsc(NC(=O)N2C[C@H]3C[C@H](N(C)c4c(C#N)cnc5[nH]ccc45)C[C@H]3C2)n1

>  <Unit Text>
h

>  <half-life>
4.62

$$$$
>  <Compound>
COc1nsc(NC(=O)N[C@H]2C[C@@H](N(C)c3c(C#N)cnc4[nH]ccc34)C2)n1

>  <Unit Text>
h

>  <half-life>
4.43

$$$$

[P] CN(c1c(C#N)cnc2[nH]ccc12)[C@H]1C[C@@H]2CN(C(=O)Nc3nc(OCC(C)(C)N)ns3)C[C@@H]2C1
[Q] CN(C)c1nsc(NC(=O)N2C[C@H]3C[C@H](N(C)c4c(C#N)cnc5[nH]ccc45)C[C@H]3C2)n1
Exam item: So which one has the bigger half-life here, P or Q ? Kindly state the label of the option you pick.
Marked response: Q

* * *

Target Of Assay: UniProt:P23458
Method Summary: JAK1 LANCE Ultra kinase assay
Format: biochemical
Condition Label: 38 uM ATP
Assay Metric: IC50 (nM)

>  <Compound>
CC[C@@H]1CN(C(=O)CCC(F)(F)F)C[C@@H]1Nc1c(C#N)cnc2[nH]ccc12 (relative stereo)

>  <Assay Metric>
IC50

>  <Unit Text>
nM

>  <Observed Value>
4.2

$$$$

[a] CC[C@@H]1CC(NC(=O)CCC(F)(F)F)C[C@@H]1Nc1c(C#N)cnc2[nH]ccc12 (stereo in doubt)
[b] CN(c1c(C#N)cnc2[nH]ccc12)[C@H]1C[C@@H](NS(=O)(=O)c2cccc(C(F)(F)F)c2)C1
[c] CN(c1c(C#N)cnc2[nH]ccc12)C1CC(NS(=O)(=O)c2ccc(C(F)(F)F)cc2)C1 (stereo not shown)
Exam item: Rank the 3 compounds: largest IC50 first, smallest last. The reply should contain the labels ordered as requested.
Marked response: c, b, a

* * *

Target Of Assay: JAK1 (Homo sapiens (Human), UniProt P23458)
Sequence (P23458 whole entry): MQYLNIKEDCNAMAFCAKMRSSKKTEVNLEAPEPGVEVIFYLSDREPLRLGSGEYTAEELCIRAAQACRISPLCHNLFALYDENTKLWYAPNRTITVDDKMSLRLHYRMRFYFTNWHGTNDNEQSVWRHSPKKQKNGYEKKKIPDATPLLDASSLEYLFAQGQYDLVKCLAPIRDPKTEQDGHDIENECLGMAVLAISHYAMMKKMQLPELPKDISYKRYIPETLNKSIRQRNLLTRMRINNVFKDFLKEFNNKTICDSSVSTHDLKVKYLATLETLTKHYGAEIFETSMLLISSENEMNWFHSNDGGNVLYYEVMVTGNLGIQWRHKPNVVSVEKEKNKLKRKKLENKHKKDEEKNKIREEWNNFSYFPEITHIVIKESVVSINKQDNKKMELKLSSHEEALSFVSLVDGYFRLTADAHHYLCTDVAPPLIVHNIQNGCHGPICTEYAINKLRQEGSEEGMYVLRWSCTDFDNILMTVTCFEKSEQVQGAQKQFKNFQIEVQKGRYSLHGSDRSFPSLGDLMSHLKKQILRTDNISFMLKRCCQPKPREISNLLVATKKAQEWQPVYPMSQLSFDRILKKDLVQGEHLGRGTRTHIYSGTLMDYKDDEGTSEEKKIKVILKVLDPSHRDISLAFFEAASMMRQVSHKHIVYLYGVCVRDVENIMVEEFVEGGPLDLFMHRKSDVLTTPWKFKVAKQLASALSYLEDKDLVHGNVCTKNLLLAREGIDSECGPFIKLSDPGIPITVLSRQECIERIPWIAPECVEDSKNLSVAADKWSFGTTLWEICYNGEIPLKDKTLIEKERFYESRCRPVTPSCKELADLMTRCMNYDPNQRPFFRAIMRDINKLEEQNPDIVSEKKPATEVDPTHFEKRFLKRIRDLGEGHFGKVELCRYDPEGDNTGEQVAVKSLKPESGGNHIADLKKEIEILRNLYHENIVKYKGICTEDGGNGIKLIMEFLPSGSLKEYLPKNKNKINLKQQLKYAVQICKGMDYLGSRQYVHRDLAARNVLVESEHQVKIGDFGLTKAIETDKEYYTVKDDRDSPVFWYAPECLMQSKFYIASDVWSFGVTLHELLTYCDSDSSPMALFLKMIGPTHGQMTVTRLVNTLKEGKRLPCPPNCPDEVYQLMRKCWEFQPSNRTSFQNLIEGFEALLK
Method Summary: JAK1 LANCE Ultra kinase assay
Format: biochemical
Condition Label: ratio of IC50 JAK2 to IC50 JAK1
Procedure: Inhibition test on activity of JAK kinase in vitro was carried out by the following methods. JAK1 LANCE® Ultra assay, JAK2 LANCE® Ultra assay and JAK3 LANCE® Ultra assay were used to carry out the test separately, and kits of the above assays were supplied by PerkinElmer. […] According to the formula: percentage of inhibition rate=(maximum value−transform value)/(maximum value−minimum value)×100, inhibition rate of each compound at various concentrations was calculated. […]
Assay Metric: JAK2/JAK1

Please review the entries below; each comes with its answer.
>  <Compound>
CN(c1c(C#N)cnc2[nH]ccc12)[C@H]1C[C@@H]2CN(C(=O)Nc3ccc(Cl)c(C(F)(F)F)c3)C[C@@H]2C1

>  <Target Of Assay>
JAK1 (Homo sapiens (Human), UniProt P23458)

>  <JAK2/JAK1>
11.96

$$$$
>  <Compound>
C[C@@H]1CN(S(=O)(=O)C[C@H]2CC[C@H](N(C)c3c(C#N)cnc4[nH]ccc34)CC2)C[C@H]1CO (relative stereo)

>  <Target Of Assay>
JAK1 (Homo sapiens (Human), UniProt P23458)

>  <JAK2/JAK1>
14.16

$$$$
>  <Compound>
CN(c1c(C#N)cnc2[nH]ccc12)[C@H]1C[C@@H]2CN(C(=O)Nc3nc(C4CC4)ns3)C[C@@H]2C1

>  <Target Of Assay>
JAK1 (Homo sapiens (Human), UniProt P23458)

>  <JAK2/JAK1>
6.92

$$$$
>  <Compound>
CC[C@@H]1CN(C(=O)NCC(F)(F)F)C[C@@H]1Nc1c(C(F)(F)F)cnc2[nH]ccc12 (relative stereo)

>  <Target Of Assay>
JAK1 (Homo sapiens (Human), UniProt P23458)

>  <JAK2/JAK1>
1.81

$$$$
>  <Compound>
CC[C@@H]1CN(C(=O)CCC#N)C[C@@H]1Nc1c(C#N)cnc2[nH]ccc12 (relative stereo)

>  <Target Of Assay>
JAK1 (Homo sapiens (Human), UniProt P23458)

>  <JAK2/JAK1>
12.58

$$$$
>  <Compound>
CN1CCN(S(=O)(=O)C[C@H]2CC[C@H](N(C)c3c(C#N)cnc4[nH]ccc34)CC2)CC1

>  <Target Of Assay>
JAK1 (Homo sapiens (Human), UniProt P23458)

>  <JAK2/JAK1>
5.14

$$$$

[A] CNCC1CCN(S(=O)(=O)C[C@H]2CC[C@H](N(C)c3c(C#N)cnc4[nH]ccc34)CC2)C1 (stereo partly shown)
[B] CCCS(=O)(=O)N[C@H]1C[C@@H](Nc2c(C#N)cnc3[nH]ccc23)C1
Exam item: Identify the entry with the smaller JAK2/JAK1: A or B . Kindly state the label of the option you pick.
Marked response: B
(B: 8.67, A: 14.18)

[A] COCc1nsc(NC(=O)N2C[C@H]3C[C@H](Nc4c(C#N)cnc5[nH]ccc45)C[C@H]3C2)n1
[B] O=C(NCC(F)(F)F)N1C[C@H](Nc2c(C(F)(F)F)cnc3[nH]ccc23)[C@H](C2CC2)C1 (relative stereo)
Exam item: So which one has the bigger JAK2/JAK1 here, A or B ? Kindly state the label of the option you pick.
Marked response: B

[A] COc1nsc(NC(=O)N[C@H]2C[C@@H](N(C)c3c(C#N)cnc4[nH]ccc34)C2)n1
[B] CN(c1c(C#N)cnc2[nH]ccc12)[C@H]1CC[C@H](CS(=O)(=O)N2CCC(C)(O)C2)CC1 (stereo partly shown)
Exam item: Identify the entry with the smaller JAK2/JAK1: A or B . Kindly state the label of the option you pick.
Marked response: B
(B: 2.76, A: 18.89)
